# Test system: KRAS G12V dependent lung adenocarcinoma cell line, NCI-H441
# measurement.description: Cellular pERK (Thr202/Tyr204) FRET/HTRF assay
# Type: cell-based
# measurement.context: Homo sapiens, NCI-H441, cellular pERK (Thr202/Tyr204) HTRF, NCI-H441 cells
pIC50: −log10 of the molar value.
result.type: pIC50

[2H]C([2H])(Oc1nc(N2CC[C@@H](C#N)C[C@H]3[C@@H](F)[C@H]32)c2cnc(-c3cc(N)cc4ccc(F)c(C#C)c34)c(F)c2n1)[C@@]12CCCN1C[C@H](F)C2    6.30 to 7.30

// lookup pIC50 for [2H]C([2H])(Oc1nc(N2CCOC[C@H]3[C@H](F)[C@H]32)c2cnc(-c3cc(N)cc4ccc(F)c(C#C)c34)c(F)c2n1)[C@@]12CCCN1C[C@H](CF)C2 (single isomer, unassigned) > 7.30

pIC50 for [2H]C([2H])(Oc1nc(N2CC[C@H](C#N)C[C@H]3[C@@H](F)[C@H]32)c2cnc(-c3cc(N)cc4ccc(F)c(C#C)c34)c(F)c2n1)[C@@]12CCCN1C[C@H](F)C2 ? 6.30 to 7.30

Form field: reported pIC50 of C#Cc1c(F)ccc2cc(N)cc(-c3ncc4c(N5CCOC[C@H]6[C@H](F)[C@H]65)nc(OC[C@]56C[C@@H](F)CN5C[C@@H](CN)C6)nc4c3F)c12 6.30 to 7.30

Could you share which pIC50 value was measured for [2H]C1([2H])CC2(CC2)[C@@]2(C([2H])([2H])Oc3nc(N4CCOC[C@H]5[C@H](F)[C@H]54)c4cnc(-c5cc(N)cc6ccc(F)c(C#C)c56)c(F)c4n3)C[C@@]([2H])(F)CN12 (single isomer, unassigned) ? > 7.30

Tell me the measured pIC50 of [2H]C([2H])(F)Oc1c(F)c(F)cc2cncc(-c3ncc4c(N5CCOC[C@H]6[C@H](F)[C@H]65)nc(OC([2H])([2H])[C@@]56CCCN5C[C@H](F)C6)nc4c3F)c12 , please. > 7.30

Fill blank: measured pIC50 of the molecule [2H]C([2H])(F)Oc1c(F)ccc2cc(N)cc(-c3ncc4c(N5CCCC[C@H]6[C@H](F)[C@H]65)nc(OC[C@]56C/C(=C/F)CN5CCC65CC5)nc4c3F)c12 is ____. > 7.30

So what's the measured pIC50 for this one? [2H]C([2H])(F)Oc1c(F)ccc2cncc(-c3ncc4c(N5CCOC[C@H]6[C@H](F)[C@H]65)nc(OC([2H])([2H])[C@@]56CCCN5C[C@H](F)C6)nc4c3F)c12 5.00 to 6.30

Quick check: pIC50 of [2H]C([2H])(Oc1nc(N2CCOC[C@H]3[C@H](F)[C@H]32)c2c(OC)nc(-c3cc(N)cc4ccc(F)c(C#C)c34)c(F)c2n1)[C@@]12CCCN1C[C@H](F)C2 ? > 7.30

---

# System: KRAS G12V dependent lung adenocarcinoma cell line, NCI-H441
# measurement.description: Cellular pERK (Thr202/Tyr204) FRET/HTRF assay
# Assay type: cell-based
# measurement.context: Homo sapiens, NCI-H441, pERK HTRF, NCI-H441 cells (KRAS G12V)
pIC50: −log10 of the molar value.
result.type: pIC50

Worked set:
[2H]C([2H])(Oc1nc(N2CCO[C@H]3[C@H](F)[C@H]32)c2cnc(-c3cc(N)cc4cc(F)c(F)c(C#C)c34)c(F)c2n1)[C@@]12CCCN1C[C@H](F)C2    > 7.30
[2H]C([2H])(Oc1nc(N2CCCC[C@H]3[C@H](F)[C@H]32)c2cnc(-c3cc(N)cc4ccc(F)c(C#C)c34)c(F)c2n1)[C@@]12CCCN1C[C@H](F)C2    > 7.30
[2H]C([2H])(Oc1nc(N2CCCO[C@H]3[C@H](F)[C@H]32)c2cnc(-c3cc(N)cc4cc(F)c(F)c(C#C)c34)c(F)c2n1)[C@@]12CCCN1C[C@H](F)C2    > 7.30
[2H]C([2H])(Oc1nc(N2CCCO[C@@H]3C[C@@H]32)c2c(OC)nc(-c3cc(O)cc4ccc(F)c(C#C)c34)c(F)c2n1)[C@@]12CCCN1C[C@H](F)C2    6.30 to 7.30

GET /values?readout=pIC50&system=KRAS G12V dependent lung adenocarcinoma cell line, NCI-H441&item= [2H]C([2H])([2H])Oc1c(C#N)c(F)cc2cc(N)cc(-c3ncc4c(N5CCCC[C@H]6[C@H](F)[C@H]65)nc(OC([2H])([2H])[C@@]56CCCN5C[C@H](F)C6)nc4c3F)c12 > 7.30

From: patent US20250282799A1
